Test system: P. berghei sporozoites
Assay: Causal prophylactic activity, exoerythrocytic (EE) mouse model, P. berghei sporozoites
Type: in vivo
Details: Dose/day 40 mg/kg, 3 days treated
P. berghei # Mice Protected/# Mice Used: recorded values
parameter: P. berghei # Mice Protected/# Mice Used

compound=CC(C)NC(=NC1=NC(=O)C(=O)N1C(C)C)Nc1ccc(Cl)c(Cl)c1 parameter="P. berghei # Mice Protected/# Mice Used" valuereported=0/5
compound=CC(C)N1C(=O)C(=O)N=C1N=C(Nc1ccccc1)Nc1ccc(Cl)c(Cl)c1 parameter="P. berghei # Mice Protected/# Mice Used" valuereported=0/5
compound=CC(C)N1C(=O)C(=O)N=C1N=C(NOCc1ccccc1)Nc1ccc(Cl)c(Cl)c1 parameter="P. berghei # Mice Protected/# Mice Used" valuereported=0/5
compound="CC(C)N1C(=O)C(=O)N=C1/N=C(\\NC(=O)OC(C)(C)C)Nc1ccc(Cl)c(Cl)c1 [Compound 3, reference compound]" parameter="P. berghei # Mice Protected/# Mice Used" valuereported=2/10
compound=CC(C)N1C(=O)C(=O)N=C1N=C(NCC(C)(C)C)Nc1ccc(Cl)c(Cl)c1 parameter="P. berghei # Mice Protected/# Mice Used" valuereported=0/5
